List of pIC50 values.
Tested on: PDC 899932-113-R3-J6 complex spheroid viability
Procedure text: Anticancer human tumor 899932-113-R3-J6-PDC patient-derived melanoma cell line growth inhibition [RAS]
Test context: curve of first compound; second compound 0.1 µM
Conceptually, pIC50 converts a concentration in mol/L into minus its log10.

CCC(CC)c1cc(NC2CCC(N)C2)n2nccc2n1 (stereo not given) + C#Cc1c(F)ccc2cc(O)cc(-c3ncc4c(N5CC6CCC(C5)N6)nc(OCC56CCCN5CC(F)C6)nc4c3F)c12    5.79
O=C(c1ccc(F)c(F)c1Nc1ccc(I)cc1F)N1CC(O)([C@@H]2CCCCN2)C1 + C=CC(=O)N1CCN(c2nc(OCC3CCCN3C)nc3c(F)c(-c4nc(N)cc(C)c4C(F)(F)F)c(Cl)cc23)C(C)C1    8.07
CCc1c2c(nc3ccc(O)cc13)-c1cc3c(c(=O)n1C2)COC(=O)[C@]3(O)CC + C=CC(=O)N1CCN(c2nc(OCC3CCCN3C)nc3c(F)c(-c4nc(N)cc(C)c4C(F)(F)F)c(Cl)cc23)C(C)C1    7.52
CC(Nc1ccc2c(c1)OCCn1cc(N3C(=O)OCC3C(F)F)nc1-2)C(N)=O (stereo not given) + C=CC(=O)N1CCN(c2nc(OCC3CCCN3C)nc3c(F)c(-c4nc(N)cc(C)c4C(F)(F)F)c(Cl)cc23)C(C)C1    5.63
CC1(C)CCC(Nc2ncc(C(F)(F)F)c(-c3c[nH]c4c(P(C)(C)=O)c(C#N)ccc34)n2)CN1 (stereo not given) + C=CC(=O)N1CCN(c2nc(OCC3CCCN3C)nc3c(F)c(-c4nc(N)cc(C)c4C(F)(F)F)c(Cl)cc23)C(C)C1    8.07
CC(C)NCC(C(=O)N1CCN(c2ncnc3c2C(C)CC3O)CC1)c1ccc(Cl)cc1 (stereo not given) + C#Cc1c(F)ccc2cc(O)cc(-c3ncc4c(N5CC6CCC(C5)N6)nc(OCC56CCCN5CC(F)C6)nc4c3F)c12    5.24

## Input What value of pIC50 has been recorded for this entry: CCc1c2c(nc3ccc(O)cc13)-c1cc3c(c(=O)n1C2)COC(=O)[C@]3(O)CC + C#Cc1c(F)ccc2cc(O)cc(-c3ncc4c(N5CC6CCC(C5)N6)nc(OCC56CCCN5CC(F)C6)nc4c3F)c12
## Output 7.68

---

Test system: PDC 899932-113-R3-J6 complex spheroid viability
Procedure text: Anticancer human tumor 899932-113-R3-J6-PDC cell line growth inhibition [RAS];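 for viability, T/C: spheroids exposed to agents for seven days before readout; 100% = DMSO vehicle control wells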
Test context: second compound 0.0316 µM; first compound 1 µM; stronger effect = lower value
Observed property: viability, T/C

CCN1CCN(Cc2ccc(Nc3ncc(F)c(-c4cc(F)c5nc(C)n(C(C)C)c5c4)n3)nc2)CC1 + C#Cc1c(F)ccc2cc(O)cc(-c3ncc4c(N5CC6CCC(C5)N6)nc(OCC56CCCN5CC(F)C6)nc4c3F)c12    23.9%

## Input Entry CC1(O)CCCC1n1c(=O)c(C(F)F)cc2cnc(NC3CCN(S(C)(=O)=O)CC3)nc21 (centres undefined) + C#Cc1c(F)ccc2cc(O)cc(-c3ncc4c(N5CC6CCC(C5)N6)nc(OCC56CCCN5CC(F)C6)nc4c3F)c12 , system PDC 899932-113-R3-J6 complex spheroid viability: what viability, T/C was measured?
## Output 69.9%

## Input Entry C[C@@H](NC(=O)c1ncnc(N)c1Cl)c1ncc(C(=O)Nc2cc(C(F)(F)F)c(Cl)cn2)s1 + C#Cc1c(F)ccc2cc(O)cc(-c3ncc4c(N5CC6CCC(C5)N6)nc(OCC56CCCN5CC(F)C6)nc4c3F)c12 , system PDC 899932-113-R3-J6 complex spheroid viability: what viability, T/C was measured?
## Output 150%

## Input Entry CC(=O)OC12COC1CC(O)C1(C)C(=O)C(O)C3=C(C)C(OC(=O)C(O)C(NC(=O)OC(C)(C)C)c4ccccc4)CC(O)(C(OC(=O)c4ccccc4)C21)C3(C)C (centres undefined) + C=CC(=O)N1CCN(c2nc(OCC3CCCN3C)nc3c(F)c(-c4nc(N)cc(C)c4C(F)(F)F)c(Cl)cc23)C(C)C1 , system PDC 899932-113-R3-J6 complex spheroid viability: what viability, T/C was measured?
## Output 48.4%
